Tested on: Psdm. aerug. Walter
Assay: MIC, liquid medium test tube series dilution test
Assay type: cell-based, Pseudomonas aerug.
Conditions: 24 hours, 37°C
# Lookup of reported MIC keyed by entry

- Compound: "Cc1ccc(C(=O)N(C)C(=O)N[C@@H](C(=O)N[C@@H]2C(=O)N3[C@@H]2SC(C)(C)[C@@H]3C(=O)O)c2ccccc2)cc1 [Example 73]"
  Result: "~ 50 units/ml"
- Compound: "COC(=O)N(C)C(=O)N[C@@H](C(=O)N[C@@H]1C(=O)N2[C@@H]1SC(C)(C)[C@@H]2C(=O)O)c1c(Cl)cccc1Cl [Example 7]"
  Result: "> 500 units/ml"
- Compound: "CN(C(=O)N[C@@H](C(=O)N[C@@H]1C(=O)N2[C@@H]1SC(C)(C)[C@@H]2C(=O)O)c1ccccc1)C(=O)c1cccs1 [Example 37]"
  Result: "4-20 units/ml"
- Compound: "CCC(=O)N(C)C(=O)N[C@@H](C(=O)N[C@@H]1C(=O)N2[C@@H]1SC(C)(C)[C@@H]2C(=O)O)c1ccccc1 [Example 113]"
  Result: "4-20 units/ml"

// moving on: another record for MIC
What measured MIC goes with CC1(C)S[C@@H]2[C@H](NC(=O)[C@H](NC(=O)N(C(=O)c3ccccc3)c3ccccc3)c3ccccc3)C(=O)N2[C@H]1C(=O)O [Example 99 B] ?
100-500 units/ml
